compounds and their reported growth
# System: T-47D breast
# EXPERIMENTAL PROTOCOL: NCI-60 one-dose screen, 48 h (100 = growth as untreated, 0 = no growth, -100 = all killed)
# REPORTED CONDITIONS: 10 µM unless noted
Compounds without any hit were thinned out: in the full panel of roughly 83,000, 20% have a hit. Calls of active or inactive are those of the source. The calls were made as follows: active = growth percent below 10; inactive = the rest.

COc1ccccc1N(C(C)=O)C1=C(Cl)C(=O)c2ccccc2C1=O : -33.1% (active)
O=C(C1=Cc2cc3ccccc3n2Cc2cnnn21)c1ccc(O)cc1 : 44.9% (inactive)
CNC(C)[C@H]1CCC2C3CC=C4C(=O)[C@@H](NC(=O)C=C(C)C)CC[C@]4(C)C3CC[C@@]21C (stereo partly drawn) : -21% (active)
CCOC(=O)CC1CSC(Nc2ccccc2)=N1 (stereo not drawn) : 87.9% (inactive)
COc1ccc(-c2nc3c(N)c(CO)cnc3s2)cc1 : 89.2% (inactive)

Per the record, CC1(C)[C@@H](O[C@@H]2OC[C@@H](O[C@@H]3O[C@H](CO)[C@@H](O)[C@H](O)[C@H]3O[C@@H]3OC[C@@H](O)[C@H](O)[C@H]3O)[C@H](O)[C@H]2O[C@@H]2O[C@H](CO)[C@@H](O)[C@H](O)[C@H]2O)CC[C@]2(C)[C@H]3CC[C@]45OC[C@@]6(CC[C@](C)(C=O)C[C@H]64)[C@H](O)C[C@@]5(C)[C@]3(C)CC[C@@H]12 has growth of -55.7% (active)

Per the record, CCCCNc1nnc2n(Cc3ccccc3)c(=O)c3c4c(sc3n12)CCCC4 has growth of 43.2% (inactive)

====

# Test system: UACC-62 melanoma
# EXPERIMENTAL PROTOCOL: NCI-60 one-dose screen, 48 h (100 = growth as untreated, 0 = no growth, -100 = all killed)
# REPORTED CONDITIONS: 10 µM unless noted
Compounds without any hit were thinned out: in the full panel of roughly 83,000, 20% have a hit. Active and inactive are the calls of the source. Rule for the calls: active = growth percent below 10; inactive = the rest.
compounds and their reported growth

CNC1=CC(=O)c2c(C(=O)OC)c(C)[n+]([O-])c(C)c2C1=O : 27.3% (inactive)
COc1ccc2c(c1)c(-c1nc(-c3c[nH]c4ncccc34)cs1)cn2CCO : 58.4% (inactive)
Fc1cc(Nc2ccc3c(OCCCN4CCOCC4)cccc3n2)ccc1Cl : -31.7% (active)
NNCCc1ccc(NC(=O)CCCc2ccc(C(=O)Nc3ccccc3N)cc2)cc1 : 49.2% (inactive)
C=Cc1cnc(Nc2ccc(OC)cc2)nc1NCCCNC(=O)C1CCC1 : 82.3% (inactive)
NC(=O)c1c(NC(=O)c2cccs2)sc2c1CCC(=O)C2 : 4.69% (active)
CC1(C)NCCC[C@]2(C)[C@H]3CC[C@H]4[C@H]5[C@H](C(=O)/C=C/c6cccnc6)CCC[C@]5(CO)CC[C@@]4(C)[C@]3(C)CC[C@@H]12 : 96.7% (inactive)
CCN1C(=O)N(CC)C2C1NN=c1s/c(=C\c3ccc[nH]3)c(=O)n12 (stereo not drawn) : 25.7% (inactive)
Cc1ccc(-c2nc(SCc3nc4cc(Cl)c(Cl)cc4[nH]3)[nH]c(=O)c2C#N)cc1 : 99.5% (inactive)
CCOC(=O)c1ccccc1-c1c2ccc(=[N+](C)C)cc-2oc2cc(N(C)C)ccc12 : 9.47% (active)

Per the record, O=S1(=O)C=C(c2ccccc2)C(c2ccccc2)=C1 has growth of 5.7% (active)

Per the record, Cc1ccc2nc(/C(C#N)=C(/CCCO)NC(Cc3ccccc3)C(=O)OCc3ccccc3)[nH]c(=O)c2c1 (stereo not drawn) has growth of 99.1% (inactive)

Per the record, COC(=O)CC[C@@H]1O[C@@H](c2ccc(F)cc2)[C@@H](O)[C@H]1O has growth of 106% (inactive)
